Each entry below carries its recorded Matricaria inodora (efficacy in %).
System: Matricaria inodora
testName: Pre-emergence herbicidal action, greenhouse, 320 g/ha
Format: in vivo
experimentalParameters: application rate 320 g/ha, scored visually after about 3 weeks vs untreated controls
Please reply with the bare figure in % and do not write the unit itself.

CCCC(=O)OC1CCN(C)C(=O)N1c1cc(C(C)(C)C)on1 (stereo not shown)
100
CN1CCC(O)N(c2cc(C(F)(F)F)ncn2)C1=O (stereo not shown)
100
CN1CCC(O)N(c2cc(C(F)(F)F)c(Br)cn2)C1=O (stereo not shown)
100
CN1CCC(O)N(c2cc(C(C)(C)F)ncn2)C1=O (stereo not shown)
100
CC(=O)OC1CC(C)N(C)C(=O)N1c1cc(C(C)(C)C)on1 (mixture of isomers)
100
CC(=O)OC1CCN(C)C(=O)N1C1=NOC(C)(C)C1 (stereo not shown)
100

Request: Need Matricaria inodora (efficacy in %) of CN1CCC(O)N(c2cc(C(C)(C)C)on2)C1=O (stereo not shown) , thanks.
Result: 100

Request: Next entry: CN1CCC(O)N(c2cc(C(F)(F)F)c(Cl)cn2)C1=O (stereo not shown)
Result: 100

Request: Next compound: C=CCC(C)(C)c1cc(N2C(=O)N(C)CCC2O)no1 (stereo not shown)
Result: 100

Request: Another compound to check: COCC(C)(C)c1cc(N2C(=O)N(C)CCC2O)no1 (stereo not shown)
Result: 90
